These measurements were taken from the supplement of paper PMC12669032.

Listing: growth AUC of selected molecules
# Test system: Parabacteroides merdae
# method-notes: growth AUC relative to DMSO control (median of replicates) (fraction); higher = more growth (less inhibition), active = hit call of the paper
# measurement-parameters: 20 µM; 24 h
readout-kind: growth AUC

• CCOc1cc(Oc2ccc(C(F)(F)F)cc2Cl)ccc1[N+](=O)[O-] = 0.954
• Clc1ccc(C2(Cn3cncn3)OCCO2)c(Cl)c1 = 0.954
• CCCCCCCCCc1ccc(O)cc1 = 0.971
• c1cc2c3c(cccc3c1)CC2 = 0.995
• O=c1c2cc(F)ccc2nc(-n2cncn2)n1-c1ccc(Cl)cc1Cl = 0.93
• O=P(Oc1ccccc1)(Oc1ccccc1)Oc1ccccc1 = 0.842

---

# System: Streptococcus salivarius
# method-notes: growth AUC relative to DMSO control (median of replicates) (fraction); higher = more growth (less inhibition), active = hit call of the paper
# measurement-parameters: 20 µM; 24 h
readout-kind: growth AUC

* CC(C)OP(=O)(OC(C)C)SCc1ccccc1 | 1 (inactive)
* Cc1ccc(-c2c(Cl)nc(C#N)n2S(=O)(=O)N(C)C)cc1 | 0.956 (inactive)
* O=C(O)c1ccccc1C(=O)Nc1cccc2ccccc12 | 0.932 (inactive)
* COP(=S)(NC(C)C)Oc1ccccc1C(=O)OC(C)C (stereo not drawn) | 0.977 (inactive)
* COP(=S)(OC)Oc1ccc(S(N)(=O)=O)cc1 | 0.985 (inactive)
* C=C(C)[C@H]1Cc2c(ccc3c2O[C@@H]2COc4cc(OC)c(OC)cc4[C@@H]2C3=O)O1 | 1.02 (inactive)
* CCOC(=O)C(O)(c1ccc(Cl)cc1)c1ccc(Cl)cc1 | 0.978 (inactive)
* COP(N)(=S)Oc1ccccc1C(=O)OC(C)C (stereo not drawn) | 0.991 (inactive)
* COC(=O)NCc1cc(/C(C)=N/OCc2cccc(C)n2)ccc1Cl | 1.01 (inactive)
* O=C(Nc1ccccc1)Nc1ccnc(Cl)c1 | 0.844 (inactive)
* O=[N+]([O-])c1c(Cl)c(Cl)c(Cl)c(Cl)c1Cl | 1 (inactive)
* COCC(=O)N(c1c(C)cccc1C)[C@@H](C)C(=O)OC | 0.999 (inactive)
* O=C(O)C1(O)c2ccccc2-c2ccc(Cl)cc21 (stereo not drawn) | 0.982 (inactive)
* CSc1nc(NC(C)C)nc(NC(C)C)n1 | 1.03 (inactive)
* CCOC(=O)Nc1cccc(OC(=O)Nc2ccccc2)c1 | 1.02 (inactive)
* Cc1cc(Cl)ccc1O[C@H](C)C(=O)O | 0.988 (inactive)
* CNC(=O)ON=C(CS(C)=O)C(C)(C)C (stereo not drawn) | 0.989 (inactive)
* COc1nc(C)nc(NC(=O)NS(=O)(=O)c2ccccc2Cl)n1 | 0.992 (inactive)
* COP(=S)(OC)Oc1ccc([N+](=O)[O-])cc1 | 0.968 (inactive)
* C#CCOc1ccc(CCNC(=O)C(OCC#C)c2ccc(Cl)cc2)cc1OC (stereo not drawn) | 0.984 (inactive)
* ClCC(Br)CBr (stereo not drawn) | 0.973 (inactive)
* CC1COC(Cn2cncn2)(c2ccc(Oc3ccc(Cl)cc3)cc2Cl)O1 (stereo not drawn) | 0.962 (inactive)
* Clc1ccc(C(c2ccc(Cl)cc2)C(Cl)(Cl)Cl)cc1 | 0.897 (inactive)
